Listing: EC50 of selected molecules
Target: progesterone receptor-B (Homo sapiens, UniProt P06401)
Sequence (P06401 whole entry): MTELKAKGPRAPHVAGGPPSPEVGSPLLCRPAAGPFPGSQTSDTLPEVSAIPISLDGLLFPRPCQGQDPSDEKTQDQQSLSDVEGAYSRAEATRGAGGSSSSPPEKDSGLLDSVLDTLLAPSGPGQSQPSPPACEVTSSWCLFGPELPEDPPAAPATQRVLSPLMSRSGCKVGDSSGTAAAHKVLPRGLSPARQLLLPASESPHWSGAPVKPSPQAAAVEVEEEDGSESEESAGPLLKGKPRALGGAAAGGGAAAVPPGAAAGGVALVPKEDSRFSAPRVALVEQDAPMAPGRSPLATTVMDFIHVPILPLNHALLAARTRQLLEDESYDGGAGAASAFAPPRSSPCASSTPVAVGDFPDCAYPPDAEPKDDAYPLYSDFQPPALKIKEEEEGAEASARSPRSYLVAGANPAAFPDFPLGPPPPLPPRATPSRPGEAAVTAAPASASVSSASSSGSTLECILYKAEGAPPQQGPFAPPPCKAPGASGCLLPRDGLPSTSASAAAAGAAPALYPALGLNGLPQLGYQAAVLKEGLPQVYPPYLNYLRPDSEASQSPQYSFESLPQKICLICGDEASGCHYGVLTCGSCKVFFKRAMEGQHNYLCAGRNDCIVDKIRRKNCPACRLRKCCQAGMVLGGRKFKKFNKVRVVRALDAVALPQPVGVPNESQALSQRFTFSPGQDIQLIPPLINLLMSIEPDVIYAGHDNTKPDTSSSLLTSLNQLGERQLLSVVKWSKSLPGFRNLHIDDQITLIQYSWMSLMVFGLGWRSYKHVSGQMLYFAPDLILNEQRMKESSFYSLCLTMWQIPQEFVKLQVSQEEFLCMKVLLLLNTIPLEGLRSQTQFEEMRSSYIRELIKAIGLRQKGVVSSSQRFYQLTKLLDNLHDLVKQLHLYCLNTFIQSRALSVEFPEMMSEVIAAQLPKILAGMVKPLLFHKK
Assay: Progesterone receptor-B transactivation, antagonistic mode (inhibition of luciferase transactivation by inducer, CHO cells)
Format: cell-based
Conditions: in the presence of 0.1 nM inducer (16α)-16-ethyl-21-hydroxy-19-norpregn-4-ene-3,20-dione; read-out: PRBant EC50
From the text: In the antagonistic mode, testing must result in an intrinsic activity of between about 85% and about 15% of the maximal activity when (6β,11β,17β)-11-[4-(dimethylamino)phenyl]-4′,5′-dihydro-6-methylspiro[estra-4,9-diene-17,2′(3′H)-furan]-3-one is used as a reference. […]

>>> print(df.to_string())
                                   molecule                       experimental_system  reported_property    result
0  C[C@@H]1C[C@H]2[C@@H]3CCC4=CC(=O)CCC4=C3[C@@H](c3ccc(-c4ccncc4)cc3)C[C@]2(C)[C@H]1C(=O)C1CC1  progesterone receptor-B (Homo sapiens, UniProt P06401)               EC50    2.5 nM
1  C[C@]12C[C@H](c3ccc(-c4cccnc4)cc3)C3=C4CCC(=O)C=C4CC[C@H]3[C@@H]1C[C@H]1C[C@]12C(=O)C1CC1  progesterone receptor-B (Homo sapiens, UniProt P06401)               EC50    1.4 nM
2  COc1ccc(-c2ccc([C@H]3C[C@@]4(C)[C@@H](CC[C@@]45CCCC5=O)[C@@H]4CCC5=CC(=O)CCC5=C43)cc2)cn1  progesterone receptor-B (Homo sapiens, UniProt P06401)               EC50  0.546 nM
3  C[C@@H]1C[C@@H]2C(=C3CCC(=O)C=C31)[C@@H](c1ccc(-c3cccnc3)cc1)C[C@@]1(C)[C@H]2C[C@@H](C)[C@@H]1C(=O)C1CC1  progesterone receptor-B (Homo sapiens, UniProt P06401)               EC50   2.75 nM
4  C[C@@H]1C[C@H]2[C@@H]3CCC4=CC(=O)CCC4=C3[C@@H](c3ccc(-c4ccccn4)cc3)C[C@]2(C)[C@H]1C(=O)C1CC1  progesterone receptor-B (Homo sapiens, UniProt P06401)               EC50   14.8 nM

### Prompt Tell me the measured EC50 of CC[C@@H]1C[C@H]2[C@@H]3CCC4=CC(=O)CCC4=C3[C@@H](c3ccc(-c4cccnc4)cc3)C[C@]2(C)[C@H]1C(=O)C1CC1 , please.
### Response 0.596 nM

### Prompt Tell me the measured EC50 of CC12CC(c3ccc(-c4cccnc4)cc3)C3=C4CCC(=O)C=C4CCC3C1CCC21CCCC1=O (stereo not drawn) [Example 23] , please.
### Response 0.325 nM

### Prompt Tell me the measured EC50 of C[C@]12C[C@H](c3ccc(-c4cccnc4)cc3)C3=C4CCC(=O)C=C4CC[C@H]3[C@@H]1CC[C@@H]2C(=O)C1CC1 , please.
### Response 0.751 nM

### Prompt Tell me the measured EC50 of C[C@@H]1C[C@H]2[C@@H]3CCC4=CC(=O)CCC4=C3[C@@H](c3ccc(-c4ccnnc4)cc3)C[C@]2(C)[C@H]1C(=O)C1CC1 , please.
### Response 3.64 nM

### Prompt Tell me the measured EC50 of C[C@@H]1C[C@H]2[C@@H]3CCC4=CC(=O)CCC4=C3[C@@H](c3ccc(-c4ccc(F)nc4)cc3)C[C@]2(C)[C@H]1C(=O)C1CC1 , please.
### Response 8.48 nM

### Prompt Tell me the measured EC50 of C[C@@H]1C[C@H]2[C@@H]3CCC4=CC(=O)CCC4=C3[C@@H](c3ccc(-c4ccc(Cl)nc4)cc3)C[C@]2(C)[C@H]1C(=O)C1CC1 , please.
### Response 0.47 nM

### Prompt Tell me the measured EC50 of CC[C@@H]1C[C@H]2[C@@H]3CCC4=CC(=O)CCC4=C3[C@@H](c3ccc(-c4ccc(OC)nc4)cc3)C[C@]2(C)[C@H]1C(=O)C1CC1 , please.
### Response 7.89 nM
